system: recombinant guanylate cyclase reporter cell line (Rattus norvegicus, UniProt P19686+P20595)
Construct: expressed in transfected cells; host or cells: recombinant reporter cell line
test: Action on recombinant guanylate cyclase reporter cell line
Format: cell-based
assay_conditions: in some cases mean values from individual determinations
Description: B-2. Action on Recombinant Guanylate Cyclase Reporter Cell Line The cellular action of the compounds according to the invention is determined on a recombinant guanylate cyclase reporter cell line, as described in F. Wunder et al., Anal. Biochem. 339, 104-112 (2005). Representative MEC values (MEC=minimal effective concentration) for the compounds according to the invention are shown in the following table (in some cases as mean values obtained from individual determinations): […]
Form field: MEC (minimal effective concentration) (one value per entry).
outcome_measure: MEC (minimal effective concentration) (µM)

compound: Cc1cc(OCc2c(F)cccc2F)c2nc(C)c(C(=O)NC3CC(C)Nc4ccc(C(F)(F)F)nc43)n2c1 (single isomer, unassigned; ent-8) [Example 326]
outcome_measure: MEC (minimal effective concentration)
assay_value: 0.30
--
compound: Cc1cc(OCc2c(F)cccc2F)c2nc(C)c(C(=O)NC(CN)c3ccc4c(c3)OCO4)n2c1 (racemic) [Example 381]
outcome_measure: MEC (minimal effective concentration)
assay_value: 0.30
--
compound: Cc1cc(OCc2c(F)cccc2F)c2nc(C)c(C(=O)NC(CN)c3cc(F)c(F)c(F)c3)n2c1 (racemic) [Example 390]
outcome_measure: MEC (minimal effective concentration)
assay_value: 0.30

* * *

system: recombinant guanylate cyclase reporter cell line (Rattus norvegicus, UniProt P19686+P20595)
Construct: expressed in transfected cells; host or cells: recombinant reporter cell line
test: Action on recombinant guanylate cyclase reporter cell line
Type: cell-based
assay_conditions: in some cases mean values from individual determinations
Form field: MEC (minimal effective concentration) (one value per entry).
outcome_measure: MEC (minimal effective concentration) (µM)

compound: CC[C@](C)(N)CNC(=O)c1c(C)nc2c(OCc3c(F)cccc3F)cc(C)cn12 (single isomer, unassigned)
unit_info: µM
assay_value: 0.04
--
compound: Cc1nc2c(OCc3c(F)cccc3F)cccn2c1C(=O)NCC(N)C(F)(F)C(F)F (racemic) [Example 230]
unit_info: µM
assay_value: 1.00
--
compound: Cc1nc2c(OCc3c(F)cccc3F)cc(C(F)F)cn2c1C(=O)NCC(C)(N)CF (single isomer, unassigned; enantiomer a) [Example 291]
unit_info: µM
assay_value: 1.0
--
compound: Cc1nc2c(OCc3c(F)cccc3F)cc(Cl)cn2c1C(=O)NCCCN
unit_info: µM
assay_value: 1.00
--
compound: Cc1nc2c(OCc3c(F)cccc3F)cccn2c1C(=O)NC(CN1CCOCC1)c1ccccc1 (racemic) [Example 134]
unit_info: µM
assay_value: 3.00
--
compound: Cc1cc(OCc2c(F)cccc2F)c2nc(C)c(C(=O)NC3CCC(N)C3)n2c1 (mixture of isomers) [Example 308]
unit_info: µM
assay_value: 0.20
--
compound: Cc1cc(OCc2c(F)cccc2F)c2nc(C)c(C(=O)NCC(C)(N)CCC(F)(F)F)n2c1 (single isomer, unassigned) [Example 408]
unit_info: µM
assay_value: 0.10

* * *

system: recombinant guanylate cyclase reporter cell line (Rattus norvegicus, UniProt P19686+P20595)
Construct: expressed in transfected cells; host or cells: recombinant reporter cell line
Sequence (P19686 1-690): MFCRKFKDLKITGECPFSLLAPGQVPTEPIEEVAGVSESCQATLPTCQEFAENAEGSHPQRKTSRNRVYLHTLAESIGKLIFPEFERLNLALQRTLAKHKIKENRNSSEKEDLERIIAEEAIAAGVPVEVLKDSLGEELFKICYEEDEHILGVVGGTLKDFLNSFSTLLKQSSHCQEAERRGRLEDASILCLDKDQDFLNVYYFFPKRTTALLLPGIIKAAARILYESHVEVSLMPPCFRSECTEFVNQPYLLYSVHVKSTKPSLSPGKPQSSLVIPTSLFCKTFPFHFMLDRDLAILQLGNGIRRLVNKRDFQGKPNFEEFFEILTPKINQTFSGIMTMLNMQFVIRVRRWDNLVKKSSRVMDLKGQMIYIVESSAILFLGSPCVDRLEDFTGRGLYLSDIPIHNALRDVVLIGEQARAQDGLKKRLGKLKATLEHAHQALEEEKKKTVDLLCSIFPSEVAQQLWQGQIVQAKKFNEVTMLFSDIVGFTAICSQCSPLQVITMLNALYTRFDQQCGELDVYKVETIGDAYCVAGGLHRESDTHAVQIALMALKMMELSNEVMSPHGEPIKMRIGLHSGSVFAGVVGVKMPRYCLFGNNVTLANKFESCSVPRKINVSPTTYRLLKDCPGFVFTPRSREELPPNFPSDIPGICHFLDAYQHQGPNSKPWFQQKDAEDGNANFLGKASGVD
Sequence (P20595 1-619): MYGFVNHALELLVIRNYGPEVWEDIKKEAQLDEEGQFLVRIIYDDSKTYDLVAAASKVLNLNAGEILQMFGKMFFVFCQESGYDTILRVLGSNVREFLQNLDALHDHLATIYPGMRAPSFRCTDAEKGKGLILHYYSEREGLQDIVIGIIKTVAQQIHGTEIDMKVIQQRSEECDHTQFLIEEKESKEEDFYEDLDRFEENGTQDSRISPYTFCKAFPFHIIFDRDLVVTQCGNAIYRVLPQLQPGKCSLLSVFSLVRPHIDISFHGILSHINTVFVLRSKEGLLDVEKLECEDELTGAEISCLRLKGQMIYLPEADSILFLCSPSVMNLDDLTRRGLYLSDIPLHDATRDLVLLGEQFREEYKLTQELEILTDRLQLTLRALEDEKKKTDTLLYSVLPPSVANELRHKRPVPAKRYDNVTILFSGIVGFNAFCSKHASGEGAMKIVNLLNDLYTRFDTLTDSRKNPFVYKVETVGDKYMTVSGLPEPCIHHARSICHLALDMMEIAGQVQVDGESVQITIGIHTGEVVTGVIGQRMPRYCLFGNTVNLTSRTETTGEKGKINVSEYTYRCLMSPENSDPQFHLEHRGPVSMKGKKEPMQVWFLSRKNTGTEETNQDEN
test: Action on recombinant guanylate cyclase reporter cell line
Format: cell-based
assay_conditions: in some cases mean values from individual determinations

compound: Cc1nc2c(OCc3c(F)cccc3F)cc(Cl)cn2c1C(=O)NCC1(N)CCCC1
unit_info: µM
MEC (minimal effective concentration): 1.00
--
compound: Cc1cc(OCc2c(F)cccc2F)c2nc(C)c(C(=O)NC(C)(C)CN)n2c1
unit_info: µM
MEC (minimal effective concentration): 0.30
--
compound: Cc1nc2c(OCc3c(F)cccc3F)cccn2c1C(=O)NCC(N)C(C)C (single isomer, unassigned) [Example 228]
unit_info: µM
MEC (minimal effective concentration): 1.00
--
compound: Cc1nc2c(OCc3c(F)cccc3F)cccn2c1C(=O)NCC(N)C(F)(F)F (racemic) [Example 207]
unit_info: µM
MEC (minimal effective concentration): 1.00
--
compound: Cc1nc2c(OCc3c(F)cccc3F)cccn2c1C(=O)NCC1NCCc2ccccc21 (racemic)
unit_info: µM
MEC (minimal effective concentration): 1.00
--
compound: CCOC(=O)c1cccc(C(CN)NC(=O)c2c(C)nc3c(OCc4c(F)cccc4F)cc(C)cn23)n1 (stereo not drawn)
unit_info: µM
MEC (minimal effective concentration): 1.00
--
compound: Cc1cc(OCc2c(F)cccc2F)c2nc(C)c(C(=O)NC3CCC3N)n2c1 (single isomer, unassigned; enantiomer b) [Example 329]
unit_info: µM
MEC (minimal effective concentration): 0.30
--
compound: Cc1cc(OCc2c(F)cccc2F)c2nc(C)c(C(=O)NC3CCNCC3(F)F)n2c1 (racemic)
unit_info: µM
MEC (minimal effective concentration): 0.10
--
compound: Cc1nc2c(OCc3c(F)cccc3F)cc(Cl)cn2c1C(=O)NCC(C)(C)N
unit_info: µM
MEC (minimal effective concentration): 0.30
--
compound: COc1cccc(C(CN)NC(=O)c2c(C)nc3c(OCc4c(F)cccc4F)cc(C)cn23)c1 (racemic)
unit_info: µM
MEC (minimal effective concentration): 0.30
--
compound: Cc1nc2c(OCc3c(F)cccc3F)cc(C(F)F)cn2c1C(=O)NCC(C)(N)CF (single isomer, unassigned; enantiomer b) [Example 292]
unit_info: µM
MEC (minimal effective concentration): 0.03
--
compound: Cc1cc(OCc2c(F)ccc(F)c2F)c2nc(C)c(C(=O)NCC(C)(N)CCC(F)(F)F)n2c1 (single isomer, unassigned) [Example 411]
unit_info: µM
MEC (minimal effective concentration): 0.03
--
compound: CCCC(C)(N)CNC(=O)c1c(CC)nc2c(OCc3c(F)cccc3F)cc(C)cn12 (racemic) [Example 301]
unit_info: µM
MEC (minimal effective concentration): 0.10
--
compound: Cc1nc2c(OCc3c(F)cccc3F)cccn2c1C(=O)N[C@H](C)CN1CCOCC1
unit_info: µM
MEC (minimal effective concentration): 3.00
--
compound: Cc1nc2c(OCc3c(F)cccc3F)cccn2c1C(=O)NC1CC(C)(C)N(C)C(C)(C)C1
unit_info: µM
MEC (minimal effective concentration): 0.10

The origin of these recorded values is patent US20150274719A1.
